test_protocol: A CellTox Green Cytotoxicity Assay to monitor cytotoxicity in HepG2 cells - 40 hour (AID 1224879); also: nearly all actives have a fitted effect of over 40% in size
details: CellTox Green fluorescence; series mostly up to 76.8 µM
Results filed as inconclusive are left out. Active and inactive are the calls of the source. Calls follow the shape of the dose curve; as a rule, active = well fitted activation curve with a large enough effect in the repeat runs; inconclusive = weak or mixed curves; inactive = flat fitted curve, though single readings scatter.
Field 'call' accepts True (active), False (inactive)

Some entries whose results are on file:
>  <molecule>
Cc1ccn2nc(S(=O)(=O)Nc3c(F)cccc3F)nc2n1

>  <class_name>
False

$$$$
>  <molecule>
CC(Cc1ccc2c(c1)OCO2)NO (stereo not drawn)

>  <class_name>
False

$$$$
>  <molecule>
CC1=C2C[C@H]3[C@@H](CC=C4C[C@@H](O)CC[C@@]43C)[C@@H]2CC[C@]12O[C@@H]1C[C@H](C)CN[C@H]1[C@H]2C

>  <class_name>
True

$$$$

Could you check what this test reported for `CC(=O)[O-].CC(=O)[O-].O.O.O.[Pb+2]` ?
False

Could you check what this test reported for `COP(=O)(OC)Oc1ccc([N+](=O)[O-])cc1` ?
False

Could you check what this test reported for `O=[N+]([O-])c1ccccc1-c1ccccc1` ?
False

Could you check what this test reported for C#CCC1=C(C)C(OC(=O)C2C(C=C(C)C)C2(C)C)CC1=O (stereo not drawn) ?
False

Could you check what this test reported for `Oc1ccc(Cl)c(Cl)c1` ?
False

Could you check what this test reported for `N#Cc1c[nH]cc1-c1cccc2c1OC(F)(F)O2` ?
True

Could you check what this test reported for `CCC[CH2][Sn]([CH2]CCC)([CH2]CCC)[CH2]CCC` ?
True

* * *

assayed_target: Progesterone receptor (Homo sapiens)
test_protocol: qHTS assay to identify small molecule antagonists of the progesterone receptor (PR) signaling pathway (AID 1346795)
details: PR-UAS-bla HEK293T, beta-lactamase FRET ratio, 16 h; series mostly up to 92.4 µM
Results filed as inconclusive are left out. Activity calls are given as the source filed them. Calls come from the whole dose curve; as a rule, active = well fitted inhibition curve with a large enough effect in the signal ratio in the repeat runs (not every such curve was filed as active); inconclusive = weak or mixed curves; inactive = flat fitted curve, though single readings scatter; the % refers to the signal ratio.
Field 'call' accepts active, inactive

>  <molecule>
COc1ccc2c3c1O[C@H]1[C@H](O)CC[C@H]4[C@@H](C2)N(C)CC[C@@]341

>  <assayed_target>
Progesterone receptor (Homo sapiens)

>  <class_name>
inactive

$$$$
>  <molecule>
[O-][Cl+3]([O-])([O-])O

>  <assayed_target>
Progesterone receptor (Homo sapiens)

>  <class_name>
inactive

$$$$
>  <molecule>
O=C(Nc1ccc(F)cc1F)c1cccnc1Oc1cccc(C(F)(F)F)c1

>  <assayed_target>
Progesterone receptor (Homo sapiens)

>  <class_name>
inactive

$$$$
>  <molecule>
OCC(Br)CBr (stereo not drawn)

>  <assayed_target>
Progesterone receptor (Homo sapiens)

>  <class_name>
inactive

$$$$
>  <molecule>
ClC1=C(Cl)[C@]2(Cl)[C@H]3[C@H]([C@@H]4C=C[C@H]3C4)[C@@]1(Cl)C2(Cl)Cl

>  <assayed_target>
Progesterone receptor (Homo sapiens)

>  <class_name>
active

$$$$

Could you check what this test reported for CCC1COC(Cn2cncn2)(c2ccc(Cl)cc2Cl)O1 (stereo not drawn) ?
active

Could you check what this test reported for `Cc1cc(C2CC2)nc(Nc2ccccc2)n1` ?
active

Could you check what this test reported for `CCCCc1ccccc1` ?
inactive

* * *

test_protocol: qHTS assay to identify small molecule agonists of the AP-1 signaling pathway - cell viability counter screen (AID 1159525); also: nearly all actives have a fitted effect of over 55% in size
details: ME-180 (cervical carcinoma) AP-1-bla cells viability, ATP luminescence, 5 h; series mostly up to 76.8 µM
Results filed as inconclusive are left out. Calls of active or inactive are those of the source. Calls follow the shape of the full dose curve.
Field 'call' accepts active, inactive

Could you check what this test reported for `CCCCN(CCCC)C(=S)[S-].CCCCN(CCCC)C(=S)[S-].[Ni+2]` ?
inactive

Could you check what this test reported for `CNC(=O)CSP(=O)(OC)OC` ?
inactive

Could you check what this test reported for `CC(=O)[O][Pb]([c]1ccccc1)([c]1ccccc1)[c]1ccccc1` ?
active

Could you check what this test reported for CCC(OC(C)=O)C(CC(C)NC)(c1ccccc1)c1ccccc1 (stereo unspecified) ?
inactive

Could you check what this test reported for COP(=S)(NC(C)C)Oc1ccc(C)cc1[N+](=O)[O-] (stereo unspecified) ?
inactive

Could you check what this test reported for `O=[N+]([O-])[O-].[Tl+]` ?
inactive

Reference for the values: PubChem BioAssay (Tox21)
